Emax: recorded values
Target: Melanocortin receptor 4 (Mus musculus, UniProt P56450)
Sequence (P56450 whole entry): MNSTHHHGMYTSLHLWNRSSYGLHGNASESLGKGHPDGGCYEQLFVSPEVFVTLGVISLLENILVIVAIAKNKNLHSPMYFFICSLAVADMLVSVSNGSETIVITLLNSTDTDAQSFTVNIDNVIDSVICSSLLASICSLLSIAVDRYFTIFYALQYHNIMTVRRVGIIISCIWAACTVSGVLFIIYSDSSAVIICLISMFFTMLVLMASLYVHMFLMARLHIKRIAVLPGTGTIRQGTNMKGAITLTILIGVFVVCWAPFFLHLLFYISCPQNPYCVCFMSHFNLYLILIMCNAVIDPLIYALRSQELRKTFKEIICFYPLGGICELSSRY
Test: Agonist activity at mouse MC4R expressed in HEK293 cells assessed as induction of cAMP accumulation up to 100 uM after 2 hrs by alpha screen assay relative to NDP-MSH
Type: cell-based
Conditions: read-out: Activity
Non-standard residues stand in square brackets, D forms with d. Residues, ends and D or L forms follow the SMILES beside them. dPhe(4-I) = N[C@H](Cc1ccc(I)cc1)C(=O)O; 2Nal = N[C@@H](Cc1ccc2ccccc2c1)C(=O)O; Bta = N[C@@H](Cc1csc2ccccc12)C(=O)O

INSERT INTO assay_data (compound, value) VALUES
  ('CC(=O)N[C@@H](Cc1ccc2ccccc2c1)C(=O)N[C@@H](CCCNC(=N)N)C(=O)N[C@H](Cc1ccc(I)cc1)C(=O)N[C@@H](Cc1csc2ccccc12)C(N)=O (Ac-[2Nal]R[dPhe(4-I)][Bta]-NH2)', '< 20%');

Record summary for CC(=O)N1Cc2ccccc2C[C@H]1C(=O)N[C@@H](CCCNC(=N)N)C(=O)N[C@H](Cc1ccc(I)cc1)C(=O)N[C@@H](Cc1ccc2ccccc2c1)C(N)=O (HELM PEPTIDE1{[ac].[Tic].R.[O=C([C@@H](Cc1ccc(I)cc1)N[*:1])[*:2]].[O=C([C@H](Cc1ccc2ccccc2c1)N[*:1])[*:2]].[am]}$$$$V2.0) : reported Emax = < 20%

====

# Emax values compiled below
Molecular target: Melanocortin receptor 4 (Mus musculus, UniProt P56450)
Assay: Agonist activity at mouse MC4R expressed in HEK293 cells assessed as induction of cAMP accumulation up to 100 uM after 2 hrs by alpha screen assay relative to NDP-MSH
Assay type: cell-based
Conditions: read-out: Activity
Non-standard residues stand in square brackets, D forms with d. Residues, ends and D or L forms follow the SMILES beside them. dPhe(4-I) = N[C@H](Cc1ccc(I)cc1)C(=O)O; Bta = N[C@@H](Cc1csc2ccccc12)C(=O)O

INSERT INTO results (molecule, value) VALUES
  ('CC(=O)N[C@@H](Cc1csc2ccccc12)C(=O)N[C@@H](CCCNC(=N)N)C(=O)N[C@H](Cc1ccc(I)cc1)C(=O)N[C@@H](Cc1csc2ccccc12)C(N)=O (Ac-[Bta]R[dPhe(4-I)][Bta]-NH2)', '< 20%'),
  ('CC(=O)NC(Cc1ccccc1)C(=O)N[C@@H](CCCNC(=N)N)C(=O)N[C@H](Cc1ccc(I)cc1)C(=O)N[C@@H](Cc1ccc2ccccc2c1)C(N)=O (stereo in doubt)', '< 20%');

Consider the additional molecule presented here.
Summary: CC(=O)N[C@@H](CCCNC(=N)N)C(=O)N[C@@H](CCCNC(=N)N)C(=O)N[C@H](Cc1ccc(I)cc1)C(=O)N[C@H](Cc1ccc2ccccc2c1)C(N)=O , Melanocortin receptor 4 (Mus musculus, UniProt P56450), Emax = < 20%

====

Target: Melanocortin receptor 4 (Homo sapiens, UniProt P32245)
Sequence (P32245 whole entry): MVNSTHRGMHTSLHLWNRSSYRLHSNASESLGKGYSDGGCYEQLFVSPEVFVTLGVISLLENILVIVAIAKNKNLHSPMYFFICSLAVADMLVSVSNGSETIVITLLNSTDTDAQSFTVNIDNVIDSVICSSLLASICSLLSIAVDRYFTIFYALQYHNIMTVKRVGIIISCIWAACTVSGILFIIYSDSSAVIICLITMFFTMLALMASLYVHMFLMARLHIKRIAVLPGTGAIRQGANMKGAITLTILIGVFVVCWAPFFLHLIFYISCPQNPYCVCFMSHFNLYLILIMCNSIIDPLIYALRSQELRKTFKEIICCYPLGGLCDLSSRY
Test: Antagonist activity at human MC4R expressed in CHO cells assessed as inhibition of aplha MSH-induced cAMP activation after 45 mins
measured.quantity: pKi
// pKi here means minus log10 of the molar concentration (mol/L)

pKi in this record for N=C(N)NCCC[C@H](NC(=O)[C@@H](Cc1ccc(I)cc1)NC(=O)[C@@H]1Cc2ccccc2CN1)C(=O)N[C@@H](Cc1c[nH]c2ccccc12)C(N)=O : 9.10

====

Target: Melanocortin receptor 3 (Mus musculus) (UniProt P33033)
Sequence (P33033 whole entry): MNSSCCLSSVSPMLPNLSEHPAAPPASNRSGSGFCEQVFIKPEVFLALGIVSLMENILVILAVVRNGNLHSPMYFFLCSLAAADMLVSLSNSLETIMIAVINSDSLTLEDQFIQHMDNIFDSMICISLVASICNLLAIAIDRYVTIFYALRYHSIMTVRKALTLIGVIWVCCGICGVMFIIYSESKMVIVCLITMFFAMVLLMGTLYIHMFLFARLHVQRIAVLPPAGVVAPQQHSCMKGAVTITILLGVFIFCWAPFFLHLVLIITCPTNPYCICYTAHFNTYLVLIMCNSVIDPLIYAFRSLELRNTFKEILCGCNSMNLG
Assay: Antagonist activity at mouse MC3R expressed in HEK293 cells assessed as inhibition of NDP-MSH induced-cAMP accumulation up to 10 uM after 2 hrs by alpha screen assay
Type: functional, cell-based
The source made the active and inactive calls. The calls are words filed in the database; no cut-off is given here. Non-standard residues stand in square brackets, D forms with d. Residues, ends and D or L forms follow the SMILES beside them. Bip = N[C@@H](Cc1ccc(-c2ccccc2)cc1)C(=O)O; dPhe(4-I) = N[C@H](Cc1ccc(I)cc1)C(=O)O; Bta = N[C@@H](Cc1csc2ccccc12)C(=O)O
measured.quantity: inhibition

INSERT INTO measurements (compound, system, measured_quantity, value) VALUES
  ('CC(=O)N[C@@H](Cc1csc2ccccc12)C(=O)N[C@@H](CCCNC(=N)N)C(=O)N[C@H](Cc1ccc(I)cc1)C(=O)N[C@@H](Cc1ccc(-c2ccccc2)cc1)C(N)=O (Ac-[Bta]R[dPhe(4-I)][Bip]-NH2)', 'Melanocortin receptor 3 (Mus musculus) (UniProt P33033)', 'inhibition', 'inactive'),
  ('CC(=O)N[C@@H](Cc1csc2ccccc12)C(=O)N[C@@H](CCCNC(=N)N)C(=O)N[C@H](Cc1ccc(I)cc1)C(=O)NC(Cc1ccccc1)C(N)=O (stereo in doubt)', 'Melanocortin receptor 3 (Mus musculus) (UniProt P33033)', 'inhibition', 'inactive'),
  ('CC(=O)N[C@@H](Cc1ccc(-c2ccccc2)cc1)C(=O)N[C@@H](CCCNC(=N)N)C(=O)N[C@H](Cc1ccc(I)cc1)C(=O)NC(Cc1ccccc1)C(N)=O (stereo in doubt)', 'Melanocortin receptor 3 (Mus musculus) (UniProt P33033)', 'inhibition', 'inactive');

====

Emax by entry:
Target: Melanocortin receptor 4 (Mus musculus, UniProt P56450)
Experiment: Agonist activity at mouse MC4R expressed in HEK293 cells assessed as induction of cAMP accumulation up to 100 uM after 2 hrs by alpha screen assay relative to NDP-MSH
Assay type: cell-based
Conditions: read-out: Activity
Non-standard residues stand in square brackets, D forms with d. Residues, ends and D or L forms follow the SMILES beside them. Bip = N[C@@H](Cc1ccc(-c2ccccc2)cc1)C(=O)O; dPhe(4-I) = N[C@H](Cc1ccc(I)cc1)C(=O)O; d2Nal = N[C@H](Cc1ccc2ccccc2c1)C(=O)O

Previously resolved entries follow.
INSERT INTO results (compound, value) VALUES
  ('CC(=O)N[C@@H](Cc1csc2ccccc12)C(=O)N[C@@H](CCCNC(=N)N)C(=O)N[C@H](Cc1ccc(I)cc1)C(=O)NC(Cc1ccccc1)C(N)=O (stereo in doubt)', '< 20%'),
  ('CC(=O)NC(Cc1ccccc1)C(=O)N[C@@H](CCCNC(=N)N)C(=O)N[C@H](Cc1ccc(I)cc1)C(=O)NC(Cc1ccccc1)C(N)=O (stereo in doubt)', '< 20%');

# value of Emax, Melanocortin receptor 4 (Mus musculus, UniProt P56450), item CC(=O)N[C@@H](Cc1ccc(-c2ccccc2)cc1)C(=O)N[C@@H](CCCNC(=N)N)C(=O)N[C@H](Cc1ccc(I)cc1)C(=O)N[C@H](Cc1ccc2ccccc2c1)C(N)=O (Ac-[Bip]R[dPhe(4-I)][d2Nal]-NH2) = < 20%
